target: human Nav1.7 (Homo sapiens (Human)); test: FLIPR sodium dye assay (CoroNa Green) with KCl and test article pre-incubation, recombinant Nav1.7/HEK293 cells; format: cell-based; settings: recombinant human Nav1.7 in HEK293; veratridine + scorpion venom stimulation
Sequence (Q15858 with tags, fused parts or gaps limits assumed): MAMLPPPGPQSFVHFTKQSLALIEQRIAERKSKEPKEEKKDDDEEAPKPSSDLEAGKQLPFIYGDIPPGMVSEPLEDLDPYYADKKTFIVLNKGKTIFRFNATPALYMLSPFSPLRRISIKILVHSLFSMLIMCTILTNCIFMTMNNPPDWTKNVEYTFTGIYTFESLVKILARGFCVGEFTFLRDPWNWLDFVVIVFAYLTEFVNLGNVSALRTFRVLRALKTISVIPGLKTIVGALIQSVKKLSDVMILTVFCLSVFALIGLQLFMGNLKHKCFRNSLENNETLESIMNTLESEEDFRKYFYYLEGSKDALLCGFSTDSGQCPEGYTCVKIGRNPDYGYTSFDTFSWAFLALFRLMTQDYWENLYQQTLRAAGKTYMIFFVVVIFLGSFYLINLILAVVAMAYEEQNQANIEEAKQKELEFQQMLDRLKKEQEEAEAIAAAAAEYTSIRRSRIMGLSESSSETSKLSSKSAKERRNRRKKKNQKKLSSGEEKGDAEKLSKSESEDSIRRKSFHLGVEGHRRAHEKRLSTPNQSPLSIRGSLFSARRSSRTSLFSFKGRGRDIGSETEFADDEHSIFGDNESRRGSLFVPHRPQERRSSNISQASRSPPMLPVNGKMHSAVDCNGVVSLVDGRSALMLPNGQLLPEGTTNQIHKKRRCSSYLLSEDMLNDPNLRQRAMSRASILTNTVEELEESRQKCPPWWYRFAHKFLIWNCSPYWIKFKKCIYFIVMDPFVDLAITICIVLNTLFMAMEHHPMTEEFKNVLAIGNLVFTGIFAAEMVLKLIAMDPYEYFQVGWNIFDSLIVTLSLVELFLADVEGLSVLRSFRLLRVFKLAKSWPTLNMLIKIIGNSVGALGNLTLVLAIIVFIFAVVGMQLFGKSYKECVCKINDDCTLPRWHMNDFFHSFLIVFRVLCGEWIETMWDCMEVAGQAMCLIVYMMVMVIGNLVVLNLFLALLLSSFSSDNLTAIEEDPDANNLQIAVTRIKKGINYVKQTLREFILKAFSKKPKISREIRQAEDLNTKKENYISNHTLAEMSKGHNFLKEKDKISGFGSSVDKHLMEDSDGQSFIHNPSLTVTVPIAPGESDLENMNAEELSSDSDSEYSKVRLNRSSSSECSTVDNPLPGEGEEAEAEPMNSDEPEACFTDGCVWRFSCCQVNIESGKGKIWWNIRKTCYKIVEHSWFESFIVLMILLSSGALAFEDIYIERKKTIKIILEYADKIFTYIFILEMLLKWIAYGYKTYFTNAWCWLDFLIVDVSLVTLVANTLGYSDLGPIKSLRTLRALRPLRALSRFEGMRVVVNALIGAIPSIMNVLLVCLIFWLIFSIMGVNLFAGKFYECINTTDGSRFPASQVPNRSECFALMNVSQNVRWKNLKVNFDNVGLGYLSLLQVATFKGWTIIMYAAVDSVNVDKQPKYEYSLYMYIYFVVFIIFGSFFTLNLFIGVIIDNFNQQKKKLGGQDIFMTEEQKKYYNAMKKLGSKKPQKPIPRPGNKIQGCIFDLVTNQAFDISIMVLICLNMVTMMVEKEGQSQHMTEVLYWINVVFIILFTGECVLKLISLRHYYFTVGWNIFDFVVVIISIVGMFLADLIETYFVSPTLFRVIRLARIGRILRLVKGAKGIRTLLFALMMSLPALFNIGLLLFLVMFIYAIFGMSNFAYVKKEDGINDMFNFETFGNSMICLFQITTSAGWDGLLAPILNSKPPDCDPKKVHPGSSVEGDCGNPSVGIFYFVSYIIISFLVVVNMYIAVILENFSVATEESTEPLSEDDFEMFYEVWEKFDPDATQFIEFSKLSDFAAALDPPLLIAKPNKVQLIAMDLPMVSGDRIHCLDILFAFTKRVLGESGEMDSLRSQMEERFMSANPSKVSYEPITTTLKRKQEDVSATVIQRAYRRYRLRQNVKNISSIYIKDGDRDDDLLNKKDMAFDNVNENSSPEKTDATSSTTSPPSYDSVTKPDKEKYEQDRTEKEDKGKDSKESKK
pIC50: −log10 of the molar value.
Entries and their measured pIC50 follow.

| SMILES_CODE | QUALIFIER | pIC50 |
| --- | --- | --- |
| Cn1nccc1-c1cc(Cl)ccc1Oc1ccc2c(c1)CN(c1nccs1)S2(=O)=O | = | 5.04 |
| O=S1(=O)c2ccc(Oc3ccccc3-c3ccccc3)cc2CN1c1nccs1 | < | 4.70 |
| O=S1(=O)c2ccc(N3CCC4(CC3)OCc3ccccc34)cc2CN1c1nccs1 | = | 5.86 |
| O=S1(=O)c2ccc(Oc3ccc(C(F)(F)F)cc3-c3ccnnc3)cc2CN1c1nccs1 | = | 5.76 |
| O=S1(=O)c2ccc(-c3ccc(Oc4ccc(C(F)(F)F)cc4)cc3)cc2CCN1c1nccs1 | = | 5.15 |

src = patent US9714252B2
